Target: VIP peptides (Cavia porcellus)
Sequence (P04566 whole entry): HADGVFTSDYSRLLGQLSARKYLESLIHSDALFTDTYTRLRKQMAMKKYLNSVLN
Recorded measurements of pKi, one per entry
Friendly reminder that pKi comes from taking -log10 of the concentration in mol/L.

Previously resolved entries follow.
> print(dat)
                                   substance  measurement.type  recorded.result
 1  H-HSDAVFTDNYTRLRKQAAVKKYLNSILN-NH2 [VIP Ala17]               pKi             8.40
 2  H-HSDAVFTDNYTRLRKQMAVAKYLNSILN-NH2 [VIP Ala20]               pKi             8.26
 3  H-HSDAVFTDNYTRLAKQMAVKKYLNSILN-NH2 [VIP Ala14]               pKi             7.21
 4  H-HSDAVATDNYTRLRKQMAVKKYLNSILN-NH2 [VIP Ala16]               pKi             5.56
 5  H-HSDAVFTANYTRLRKQMAVKKYLNSILN-NH2 [VIP Ala8]               pKi             8.92
 6  H-HSDAVFTDNYTALRKQMAVKKYLNSILN-NH2 [VIP Ala12]               pKi             7.25
 7  H-HADAVFTDNYTRLRKQMAVKKYLNSILN-NH2 [VIP Ala2]               pKi             8.59
 8  H-HSDAVFTDNYARLRKQMAVKKYLNSILN-NH2 [VIP Ala11]               pKi             8.62
 9  H-HSDAVFTDNYTRLRKAMAVKKYLNSILN-NH2 [VIP Ala16]               pKi             8.29
10  H-HSDAVFTDNYTRLRKQMAVKAYLNSILN-NH2 [VIP Ala21]               pKi             8.49

**Q:** Checklist item: pKi tested on VIP peptides (Cavia porcellus), entry H-HSDAVFTDAYTRLRKQMAVKKYLNSILN-NH2 [VIP Ala9] , value?
**A:** 8.80

**Q:** Fill in the recorded pKi for this substance, with VIP peptides (Cavia porcellus) as test system: H-HSAAVFTDNYTRLRKQMAVKKYLNSILN-NH2 [VIP Ala3]
**A:** 6.37

**Q:** Return pKi measured with VIP peptides (Cavia porcellus) given this substance: H-HSDAVFTDNYTRLRAQMAVKKYLNSILN-NH2 [VIP Ala15]
**A:** 8.72

**Q:** Value wanted: pKi (VIP peptides (Cavia porcellus)) of entry H-HSDAVFTDNYTRLRKQMAVKKYLNSILA-NH2 [VIP Ala28]
**A:** 8.37

**Q:** Notebook entry, VIP peptides (Cavia porcellus) assay: pKi of H-ASDAVFTDNYTRLRKQMAVKKYLNSILN-NH2 [VIP Ala1] = ?
**A:** 7.02

**Q:** Form field - read-out: pKi; system: VIP peptides (Cavia porcellus); submitted item: H-HSDAVFTDNYTRLRKQMAVKKALNSILN-NH2 [VIP Ala22]
**A:** 8.07

**Q:** Checklist item: pKi tested on VIP peptides (Cavia porcellus), entry H-HSDAVFTDNYTRLRKQMAAKKYLNSILN-NH2 [VIP Ala19] , value?
**A:** 8.49

**Q:** Find pKi (VIP peptides (Cavia porcellus)) for the entry H-HSDAVFTDNYTRARKQMAVKKYLNSILN-NH2 [VIP Ala13]
**A:** 8.02

**Q:** State its pKi on VIP peptides (Cavia porcellus): H-HSDAVFTDNYTRLRKQMAVKKYANSILN-NH2 [VIP Ala23]
**A:** 6.74

**Q:** Tell me reported pKi for H-HSDAVFTDNATRLRKQMAVKKYLNSILN-NH2 [VIP Ala10] , tested with VIP peptides (Cavia porcellus).
**A:** 7.26

**Q:** Enter reported pKi observed with VIP peptides (Cavia porcellus) for H-HSDAVFTDNYTRLRKQMAVKKYLNSIAN-NH2 [VIP Ala27]
**A:** 8.62

**Q:** Observed pKi on VIP peptides (Cavia porcellus) for H-HSDAAFTDNYTRLRKQMAVKKYLNSILN-NH2 [VIP Ala5] , please.
**A:** 7.46

**Q:** Query for VIP peptides (Cavia porcellus): what pKi does the record show for H-HSDAVFTDNYTRLRKQMAVKKYLASILN-NH2 [VIP Ala24] ?
**A:** 8.05
